Data credit: paper PMC7562955

activation of human TLR7, reporter signal values by entry
Molecular target: UniProt Q9NYK1
Test: Human TLR7 reporter gene agonistic activity assay
Format: cell-based
Parameters: host or cells: HEK293 (TLR7/NF-κB/SEAPorter)
Settings: compound 0.03 nM (as headed)
Reply with just the number.

Use these answered entries as a reference point.
CCCCOc1nc(N)c2nc(-c3cccnc3)n(Cc3ccccc3)c2n1 [Cpd-5]    -0.06455
CCOc1nc(N)c2nc(-c3cncc(F)c3)n(Cc3ccc(CN4C[C@@H]5C[C@H]4CN5C)cc3)c2n1 [Cpd-6]    -0.0956
CCOc1nc(C)c2nc(-c3cncc(F)c3)n(Cc3ccc(CN4C[C@@H]5C[C@H]4CN5C)cc3)c2n1 [Cpd-7]    -0.06165

With those in mind, consider the next compound.
Measured activation of human TLR7, reporter signal, CCOCc1nc2c(N)nc3ccccc3c2n1CC(C)(C)O [R848, reference compound] : 0.2447

* * *

activation of human TLR7, reporter signal values for the compounds below.
Target: TLR7 (Homo sapiens, UniProt Q9NYK1)
Sequence (Q9NYK1 27-1049): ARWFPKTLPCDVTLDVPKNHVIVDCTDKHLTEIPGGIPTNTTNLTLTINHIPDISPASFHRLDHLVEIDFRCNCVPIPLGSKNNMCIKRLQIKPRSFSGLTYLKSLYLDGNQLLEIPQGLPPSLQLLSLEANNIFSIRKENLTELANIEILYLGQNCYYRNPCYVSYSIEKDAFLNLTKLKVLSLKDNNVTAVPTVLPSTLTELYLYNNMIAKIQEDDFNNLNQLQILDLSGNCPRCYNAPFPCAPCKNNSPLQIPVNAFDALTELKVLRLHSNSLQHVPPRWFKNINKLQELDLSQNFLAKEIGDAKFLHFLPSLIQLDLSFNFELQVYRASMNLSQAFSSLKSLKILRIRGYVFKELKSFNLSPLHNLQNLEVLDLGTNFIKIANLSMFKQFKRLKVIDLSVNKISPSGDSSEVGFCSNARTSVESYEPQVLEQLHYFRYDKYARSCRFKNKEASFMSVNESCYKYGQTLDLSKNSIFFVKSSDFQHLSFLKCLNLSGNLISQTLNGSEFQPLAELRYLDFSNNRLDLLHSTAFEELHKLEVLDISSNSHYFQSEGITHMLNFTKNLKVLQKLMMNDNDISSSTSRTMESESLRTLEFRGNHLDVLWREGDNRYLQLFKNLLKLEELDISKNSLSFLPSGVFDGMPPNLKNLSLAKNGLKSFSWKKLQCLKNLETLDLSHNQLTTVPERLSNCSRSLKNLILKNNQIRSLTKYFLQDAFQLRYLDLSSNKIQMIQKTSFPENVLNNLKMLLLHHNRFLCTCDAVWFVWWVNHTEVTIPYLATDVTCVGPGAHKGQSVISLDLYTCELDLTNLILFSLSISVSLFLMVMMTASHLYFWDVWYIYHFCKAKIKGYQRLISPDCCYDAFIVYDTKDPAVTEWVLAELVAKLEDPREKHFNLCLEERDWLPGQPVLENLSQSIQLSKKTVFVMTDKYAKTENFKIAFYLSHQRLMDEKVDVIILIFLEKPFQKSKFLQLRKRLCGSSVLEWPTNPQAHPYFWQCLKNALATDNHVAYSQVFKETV
Assay: Human TLR7 reporter gene agonistic activity assay
Assay type: cell-based
Set-up: host or cells: HEK293 (TLR7/NF-κB/SEAPorter)
Conditions: compound 0.3 nM (as headed)

CCOc1nc(C)c2nc(-c3cncc(F)c3)n(Cc3ccc(CN4C[C@@H]5C[C@H]4CN5C)cc3)c2n1    -0.02775
CCCCOc1nc(N)c2nc(-c3cccnc3)n(Cc3ccccc3)c2n1    -0.02125
CCOc1nc(N)c2nc(-c3cncc(F)c3)n(Cc3ccc(CN4C[C@@H]5C[C@H]4CN5C)cc3)c2n1    -0.01435

Lab note: CCOCc1nc2c(N)nc3ccccc3c2n1CC(C)(C)O [R848, reference compound] gave activation of human TLR7, reporter signal of 3.124

* * *

Target: human TLR9 (Homo sapiens, UniProt Q9NR96)
Construct: host or cells: HEK293 (TLR9/NF-κB/SEAPorter)
Sequence (Q9NR96 26-1032): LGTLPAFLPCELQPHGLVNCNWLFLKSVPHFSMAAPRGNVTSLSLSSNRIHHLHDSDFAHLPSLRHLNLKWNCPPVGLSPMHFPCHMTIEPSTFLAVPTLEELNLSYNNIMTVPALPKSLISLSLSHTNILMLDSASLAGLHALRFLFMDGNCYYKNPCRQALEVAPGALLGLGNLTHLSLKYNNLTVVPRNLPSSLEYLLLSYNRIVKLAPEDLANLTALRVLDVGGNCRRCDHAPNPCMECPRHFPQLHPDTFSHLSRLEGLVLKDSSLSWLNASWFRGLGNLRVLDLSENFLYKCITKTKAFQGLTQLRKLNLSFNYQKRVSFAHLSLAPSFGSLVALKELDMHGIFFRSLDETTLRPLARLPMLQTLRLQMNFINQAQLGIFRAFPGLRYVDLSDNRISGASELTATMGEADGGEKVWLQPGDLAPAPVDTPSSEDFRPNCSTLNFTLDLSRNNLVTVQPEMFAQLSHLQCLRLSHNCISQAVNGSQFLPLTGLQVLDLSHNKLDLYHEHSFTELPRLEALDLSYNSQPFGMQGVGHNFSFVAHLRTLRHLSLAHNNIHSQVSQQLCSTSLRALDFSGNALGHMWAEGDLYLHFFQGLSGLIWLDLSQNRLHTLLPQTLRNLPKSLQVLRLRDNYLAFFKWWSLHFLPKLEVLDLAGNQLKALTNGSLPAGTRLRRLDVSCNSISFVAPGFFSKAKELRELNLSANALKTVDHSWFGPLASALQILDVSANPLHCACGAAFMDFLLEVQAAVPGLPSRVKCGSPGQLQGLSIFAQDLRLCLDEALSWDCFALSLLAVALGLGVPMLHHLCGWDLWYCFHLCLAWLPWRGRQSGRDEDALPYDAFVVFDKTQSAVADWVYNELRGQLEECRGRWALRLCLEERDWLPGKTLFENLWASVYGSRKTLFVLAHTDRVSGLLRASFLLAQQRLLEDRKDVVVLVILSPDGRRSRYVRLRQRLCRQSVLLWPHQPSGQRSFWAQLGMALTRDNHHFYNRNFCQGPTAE
Assay: Human TLR9 reporter gene inhibitory activity assay (NF-κB/SEAP HEK293)
Assay type: cell-based
Details: compound 30 nM (as headed); CpG2006 500 nM
reportedProperty: human TLR9 activity, reporter signal
Give the figure only, with no unit attached.

Form field human TLR9 activity, reporter signal, entry "CCCCOc1nc(N)c2nc(-c3cccnc3)n(Cc3ccccc3)c2n1" : 0.2475

Item: CCN(CCO)CCCC(C)Nc1ccnc2cc(Cl)ccc12 (stereo not shown) [HCQ, hydroxychloroquine, reference compound] | human TLR9 activity, reporter signal: -0.01145

Briefly, human TLR9 activity, reporter signal measured for "CCOc1nc(C)c2nc(-c3cncc(F)c3)n(Cc3ccc(CN4C[C@@H]5C[C@H]4CN5C)cc3)c2n1" : 0.05003

human TLR9 activity, reporter signal measured on "CCOc1nc(N)c2nc(-c3cncc(F)c3)n(Cc3ccc(CN4C[C@@H]5C[C@H]4CN5C)cc3)c2n1" = 0.06893

* * *

Target: human TLR9 (Homo sapiens)
Construct: host or cells: HEK293 (TLR9/NF-κB/SEAPorter)
Assay: Human TLR9 reporter gene inhibitory activity assay (NF-κB/SEAP HEK293)
Assay type: cell-based
Details: compound 3 nM (as headed); CpG2006 500 nM
reportedProperty: human TLR9 activity, reporter signal
Please respond with just the number, no unit label.

CCOc1nc(C)c2nc(-c3cncc(F)c3)n(Cc3ccc(CN4C[C@@H]5C[C@H]4CN5C)cc3)c2n1 [Cpd-7]    0.3183
CCOc1nc(N)c2nc(-c3cncc(F)c3)n(Cc3ccc(CN4C[C@@H]5C[C@H]4CN5C)cc3)c2n1 [Cpd-6]    0.3176
CCN(CCO)CCCC(C)Nc1ccnc2cc(Cl)ccc12 (stereo not shown) [HCQ, hydroxychloroquine, reference compound]    0.0184

Would you kindly look at the next entry?
human TLR9 activity, reporter signal in this record for CCCCOc1nc(N)c2nc(-c3cccnc3)n(Cc3ccccc3)c2n1 [Cpd-5] : 0.3381

* * *

Molecular target: TLR7 (Homo sapiens)
Sequence (Q9NYK1 27-1049): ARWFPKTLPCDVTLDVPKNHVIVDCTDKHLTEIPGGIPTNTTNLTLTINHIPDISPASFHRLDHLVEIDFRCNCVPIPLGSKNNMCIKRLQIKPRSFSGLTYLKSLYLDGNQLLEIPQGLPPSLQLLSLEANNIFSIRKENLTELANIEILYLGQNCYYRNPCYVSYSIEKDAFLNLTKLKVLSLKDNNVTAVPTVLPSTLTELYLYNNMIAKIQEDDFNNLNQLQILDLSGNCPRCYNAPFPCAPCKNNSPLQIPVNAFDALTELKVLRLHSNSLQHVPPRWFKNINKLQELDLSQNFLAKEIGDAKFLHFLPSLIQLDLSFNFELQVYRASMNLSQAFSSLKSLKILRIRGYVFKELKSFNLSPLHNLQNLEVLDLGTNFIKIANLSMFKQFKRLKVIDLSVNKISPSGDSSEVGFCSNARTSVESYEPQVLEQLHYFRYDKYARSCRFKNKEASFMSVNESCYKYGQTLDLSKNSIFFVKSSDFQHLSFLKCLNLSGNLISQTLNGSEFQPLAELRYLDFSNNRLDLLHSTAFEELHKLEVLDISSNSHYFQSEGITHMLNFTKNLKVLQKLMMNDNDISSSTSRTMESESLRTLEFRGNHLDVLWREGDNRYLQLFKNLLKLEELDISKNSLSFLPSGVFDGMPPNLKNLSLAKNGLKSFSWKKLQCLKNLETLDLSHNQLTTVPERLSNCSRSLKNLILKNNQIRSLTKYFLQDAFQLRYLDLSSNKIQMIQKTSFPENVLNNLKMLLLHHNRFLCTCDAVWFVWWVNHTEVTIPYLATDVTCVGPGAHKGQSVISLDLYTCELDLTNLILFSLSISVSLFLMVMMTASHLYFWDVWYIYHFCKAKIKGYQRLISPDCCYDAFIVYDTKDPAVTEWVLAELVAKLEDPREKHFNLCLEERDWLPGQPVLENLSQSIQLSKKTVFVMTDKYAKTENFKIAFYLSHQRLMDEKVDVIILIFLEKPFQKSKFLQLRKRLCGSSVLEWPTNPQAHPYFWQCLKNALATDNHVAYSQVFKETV
Test: Human TLR7 reporter gene agonistic activity assay
Format: cell-based
Parameters: host or cells: HEK293 (TLR7/NF-κB/SEAPorter)
Conditions: compound 0.003 nM (as headed)
reportedProperty: activation of human TLR7, reporter signal
API note: the answer field is a bare number with no unit suffix.

Below, each entry is followed by its recorded activation of human TLR7, reporter signal result.
CCOCc1nc2c(N)nc3ccccc3c2n1CC(C)(C)O [R848, reference compound]    -0.0898
CCOc1nc(C)c2nc(-c3cncc(F)c3)n(Cc3ccc(CN4C[C@@H]5C[C@H]4CN5C)cc3)c2n1    -0.04595

The molecule listed as "CCOc1nc(N)c2nc(-c3cncc(F)c3)n(Cc3ccc(CN4C[C@@H]5C[C@H]4CN5C)cc3)c2n1" has a reported activation of human TLR7, reporter signal of -0.076

Memo: "CCCCOc1nc(N)c2nc(-c3cccnc3)n(Cc3ccccc3)c2n1" , reported activation of human TLR7, reporter signal: -0.05305
